Tested on: MDA-MB-231
assay.text: NCI tumour cell line growth inhibition, 48 h
Activity calls are given as the source filed them. Rule as the data show it: active = GI50 up to about 1.1 µM and inactive = higher.
Classes used: active, inactive

• COc1ccc(CC(=O)N2CCC3(C)CC(=O)CC=C23)cc1OC (stereo not given) = inactive
• CCOC(=O)c1cn2c(n1)sc1cc(OC)ccc12 = inactive
• O=C(CN1CCCCC1)c1ccc2[nH]c(=O)oc2c1 = inactive
• COc1ccc(C2=NN=C3C(c4ccccc4)=Nc4ccccc4N3C2)cc1 = inactive
• O=[N+]([O-])c1ccc2[nH]nc(OCc3ccccc3Cl)c2c1 = inactive
• Fc1cc2nc3n(c2cc1F)C(c1c(F)cccc1F)SC3 (stereo not given) = inactive
• CCCCCCNc1n[nH]c(=O)c2c1nnn2Cc1ccccc1 = inactive
• C[n+]1c(-c2ccc(/C=N/NC(=O)C(=O)N/N=C/c3ccc(-c4cn5ccccc5[n+]4C)cc3)cc2)cn2ccccc21 = inactive
• COC(=O)/C=C/CCC#Cc1ccccc1C#CCC/C=C/C(=O)OC = inactive
• CN(CCCNC(=O)c1cn(C)c2c1ccc1cc(Cl)ccc12)CCCNC(=O)c1cn(C)c2c1ccc1cc(Cl)ccc12 = inactive
• NC(=O)C1CCCN1Cc1ccc2c(c1)OCO2 (stereo not given) = inactive
• O=C1OCCC12CN(Cc1ccccc1)N=N2 (stereo not given) = inactive
• O=C(/C=C/c1ccc(-c2ccccc2)cc1)NCc1ccc(C(=O)NCCc2ccccc2)cc1 = inactive
• COC[C@H]1C(=O)NCC(=O)N2N=CCC[C@H]2C(=O)N(O)[C@H](C)C(=O)O[C@@H](C(C)C)[C@H](NC(=O)[C@@](C)(O)[C@]2(O)CC[C@@H](CC(C)C)[C@H](C)O2)C(=O)N2NCCC[C@@H]2C(=O)N1O = active
• CC(=O)C(C(c1ccccc1)N1CCOCC1)N1CCOCC1 (stereo not given) = inactive
• CC(C)C(/C=C/c1ccc(Cl)cc1)=N\NC(=S)NN = inactive
• CC(C)=CCN1CC(C)C(=O)Nc2cc(Cl)ccc21 (stereo not given) = inactive
• CCCCCCCCCCCCCOCCOCCOCCCCC(O)CCCCCCCCCC1=C[C@H](C)OC1=O (stereo not given in full) = inactive
• Cc1ccccc1NC(=O)Cc1csc(N/N=C2\C(=O)Nc3ccccc32)n1 = inactive
• Cc1cc(C)c(NC(=S)NC(=O)c2ccccc2)cc1C = inactive
